Test system: CAKI-1
Experiment: NCI tumour cell line growth inhibition, 48 h
Calls of active or inactive are those of the source. No stated cut-off is given here; in the data, active = GI50 up to about 1.1 µM and inactive = higher.
Give measured GI50 for each item. Keep answers brief.

Lab note: each compound below needs its GI50 filled in.
1. C/C=C1/CN2CCC34C5=CC(=O)C(c6cc7c(cc6OC)N(C)C6=C(C(=O)OC)CC8(CC)CCCN9CCC67C98)=CC5=NC23CCC1C4C(=O)OC (stereo not given)
2. COc1ccc(/C=C/C(=O)/C=C/c2ccc(OC)cc2OC)c(OC)c1
3. CC(=O)c1c(C)cc2cccc(OC3OC(CO)C(O)C(O)C3O)c2c1O.CC1OC(O)C(O)C(O)C1O (stereo not given)
4. NC(=O)c1ncn2c1CNC(=O)C2
5. O=c1[nH]c2ccccc2c(=O)c2cc3ccccc3cc12

Return:
1. 9.51 µM (inactive)
2. 5.35 µM (inactive)
3. > 100 µM (inactive)
4. > 100 µM (inactive)
5. 16.2 µM (inactive)

====

System: ACHN
Test: NCI tumour cell line growth inhibition, 48 h
Calls of active or inactive are those of the source. Cut-off read from the data, not from the text of the source: active = GI50 up to about 1.1 µM and inactive = higher.
Give measured GI50 for each item. Keep answers brief.

Lab note: each molecule below needs its GI50 filled in.
1. Cc1cccc(C)c1NC(=O)C(=O)C(c1ccccc1Cl)S(=O)(=O)Cc1ccccc1Cl (configuration not stated)
2. O=[N+]([O-])C1(CO)COC2(OC1)c1ccccc1-c1ccccc12
3. Oc1ccccc1/C=N/c1ccc(Oc2ccc(Cl)cc2)c(Cl)c1
4. CC(=O)Oc1ccc(CO)cc1OC(C)=O
5. COc1ccc(/C=C/C(=O)c2sc(Nc3ccc([N+](=O)[O-])cc3)nc2C)cc1
6. C#CCCCCC#Cc1ccccc1C(=O)OC

Return:
["53.3 µM (inactive)", "> 81.3 µM (inactive)", "30.3 µM (inactive)", "> 100 µM (inactive)", "38.6 µM (inactive)", "64.3 µM (inactive)"]

Lab note: each molecule below needs its GI50 filled in.
1. Clc1cc(OC23CC4CC(CC(C4)C2)C3)nc(Cl)n1
2. COC(=O)CCC(=O)NC1c2cccc3cccc(c23)Cn2c(=O)n(C)c(=O)n21 (configuration not stated)
3. Nc1nc(N)c(CCCCc2ccccc2)c(C=O)n1

Return:
1: > 100 µM (inactive); 2: > 100 µM (inactive); 3: 22.5 µM (inactive)

Lab note: each molecule below needs its GI50 filled in.
1. NC(=O)CSc1nc2ccccc2c(=O)n1N
2. CCOC(=O)c1c(C)c(C)n2c1NC(=O)C2
3. Cc1ccc(-c2c(C#N)c(N)[nH]c(=S)c2C#N)cc1

Return:
["> 100 µM (inactive)", "> 76.2 µM (inactive)", "79.3 µM (inactive)"]

====

System: OVCAR-3
Test: NCI tumour cell line growth inhibition, 48 h
Activity calls are given as the source filed them. Cut-off read from the data, not from the text of the source: active = GI50 up to about 1.1 µM and inactive = higher.
Outcomes you can answer with include only these: active, inactive

Enquiry: Per the assay record, what outcome was assigned to CCOC(=O)C(C(=O)OCC)C(=S)NC1OC(COC(C)=O)C(OC(C)=O)C(OC(C)=O)C1OC(C)=O (centres undefined) ?
Return: inactive

Enquiry: Per the assay record, what outcome was assigned to Cc1cccc(C)c1NC(=O)C(=O)C(c1ccccc1Cl)S(=O)(=O)Cc1ccccc1Cl (centres undefined) ?
Return: inactive

Enquiry: Per the assay record, what outcome was assigned to COC(=O)C(=O)C(C(=O)C(=O)Nc1cccc([N+](=O)[O-])c1)c1nc2ccc(Cl)cc2nc1O (centres undefined) ?
Return: inactive

Enquiry: Per the assay record, what outcome was assigned to CC(C)=CCC/C(C)=C/CC/C(C)=C/CCC1(C)CCC([C@H](C)C(=O)O)OO1.CC1=C(CC/C(C)=C/CCC2(C)CCC([C@H](C)C(=O)O)OO2)C(C)(C)CCC1 (some centres undefined) ?
Return: inactive

Enquiry: Per the assay record, what outcome was assigned to CCCCS(=O)(=O)CCC(N)C(=O)O (centres undefined) ?
Return: inactive

Enquiry: Per the assay record, what outcome was assigned to C[C@]12CC(c3ccccc3O1)C(C(=O)Nc1nc(C34CC5CC(CC(C5)C3)C4)cs1)C(=O)N2 (some centres undefined) ?
Return: inactive

====

Test system: KM12
Assay: NCI tumour cell line growth inhibition, 48 h
Activity calls are given as the source filed them. Cut-off read from the data, not from the text of the source: active = GI50 up to about 1.1 µM and inactive = higher.
Give measured GI50 for each item. Keep answers brief.

C=C1N(S(=O)(=O)c2ccc(C)cc2)C(=O)OCC12CCCC2 | > 100 µM (inactive)
COc1ccc2oc(=O)c(-c3csc(-c4ccccc4)n3)cc2c1 | > 100 µM (inactive)
OC1(C23CC4CC(CC(C4)C2)C3)CSCC1(O)C12CC3CC(CC(C3)C1)C2 (stereo not given) | > 100 µM (inactive)

Lab note: each compound below needs its GI50 filled in.
1. C1=CCC[C@@H]2CN3CCCC/C=C\CCCC[C@H]4C[C@H](CN(CCCCCCCC1)C4)[C@H]2CC3
2. CSc1nc(NC2OCC(OC(C)=O)C(OC(C)=O)C2OC(C)=O)c(/N=C\C=N\c2c(NC3OCC(OC(C)=O)C(OC(C)=O)C3OC(C)=O)nc(SC)n(C)c2=O)c(=O)n1C (stereo not given)
3. Nc1nc(Cl)cc(NC23CC4CC(CC(C4)C2)C3)n1
4. O=c1[nH]nc(Cc2ccccc2)n1CCO
5. CCOC(=O)c1c(OCC)[nH]c(=O)c(C(c2cccs2)c2c(O)c(C(=O)OCC)c(OCC)[nH]c2=O)c1O
6. c1ccc2c(c1)CCN1CCc3c([nH]c4ccccc34)C21 (stereo not given)

Return:
1. 7.91 µM (inactive)
2. > 100 µM (inactive)
3. > 100 µM (inactive)
4. > 100 µM (inactive)
5. 17.9 µM (inactive)
6. 26.5 µM (inactive)

Enquiry: Recorded GI50 of CCCCCCCCCCCCNC1(C)CNCCCNCCNCCCNC1 , please.
Return: 1.53 µM (inactive)

====

Test system: RPMI-8226
Experiment: NCI tumour cell line growth inhibition, 48 h
Active and inactive are the calls of the source. No stated cut-off is given here; in the data, active = GI50 up to about 1.1 µM and inactive = higher.
Outcomes you can answer with include only these: yes for active, no for inactive

Enquiry: Per the assay record, what outcome was assigned to O=[N+]([O-])c1cccc(/N=C2\c3ccccc3CN2c2cccc([N+](=O)[O-])c2)c1 ?
Return: no

Enquiry: Per the assay record, what outcome was assigned to O=S(=O)(c1ccccc1)c1cccc2c1NCCC2 ?
Return: no

Enquiry: Per the assay record, what outcome was assigned to CC(C)N1C=[N+](C(C)C)CC1 ?
Return: no

Enquiry: Per the assay record, what outcome was assigned to C=CCCOC(=O)CO[N+](=O)[O-] ?
Return: no

Enquiry: Per the assay record, what outcome was assigned to CCCCCCCCCCCCCCCCCC(=O)NCC(COP(=O)(O)O)OCC (stereo not given) ?
Return: no

Enquiry: Per the assay record, what outcome was assigned to COc1ccc(/C=C2\CCC(CN(C)C)C2=O)cc1OC (stereo not given) ?
Return: no

Enquiry: Per the assay record, what outcome was assigned to CC(=O)OCC1=CC2OC(=O)C3=COC(OC4OC(CO)C(O)C(O)C4O)C1C32 (stereo not given) ?
Return: no

Enquiry: Per the assay record, what outcome was assigned to CC(=O)Oc1ccc2c(c1)c1c(=O)oc(C)nc1n2Cc1ccccc1 ?
Return: no

Enquiry: Per the assay record, what outcome was assigned to CCCNC(=S)N/N=C(\C)c1ccc(S(=O)(=O)N(C)c2ccccc2)cc1 ?
Return: no

Enquiry: Per the assay record, what outcome was assigned to CC1=NN(C(=O)CC(=O)Nc2ccccc2Cl)C(=O)C1/N=N/c1ccc(C(=O)O)cc1 (stereo not given) ?
Return: no

Enquiry: Per the assay record, what outcome was assigned to Cc1ncc(COP(=O)(O)O)c(/C=C2\SC(=S)NC2=O)c1O ?
Return: no

====

Tested on: SW-620
Assay: NCI tumour cell line growth inhibition, 48 h
Activity calls are given as the source filed them. Cut-off read from the data, not from the text of the source: active = GI50 up to about 1.1 µM and inactive = higher.
Outcomes you can answer with include only these: active, inactive

CCOC(=O)Cn1c(=O)c2nc(SC)sc2n(-c2ccccc2)c1=O | inactive

Shift focus to the following entry.
Enquiry: Per the assay record, what outcome was assigned to CN(C)C(=Nc1nc(N(C)C)s[s+]1)N(C)C ?
Return: inactive

====

System: UACC-257
Assay: NCI tumour cell line growth inhibition, 48 h
Calls of active or inactive are those of the source. Rule as the data show it: active = GI50 up to about 1.1 µM and inactive = higher.
quantityMeasured: GI50

C[n+]1c(-c2ccccc2)cc2/c(=C\c3ccc([N+](=O)[O-])cc3)c3ccccc3n21 | 4.99 µM (inactive)

Lab note: each compound below needs its GI50 filled in.
1. CC1CC(c2ccc([N+](=O)[O-])cc2)=Nc2ccccc2[S+]1[O-] (stereo unspecified)
2. O=C1Nc2ccccc2/C1=N/Nc1nc(-c2ccc(Br)cc2)cs1
3. O=C(O)CCc1ccc2c(c1)C(=O)CC2
4. COC12C=CC(C=C1C#N)CC2.COC12C=CC(CC1)CC2=O (stereo unspecified)
5. Cc1ccc(-c2c(C#N)c(N)[nH]c(=S)c2C#N)cc1

Return:
1. 20.2 µM (inactive)
2. 22.7 µM (inactive)
3. > 100 µM (inactive)
4. > 100 µM (inactive)
5. 34.5 µM (inactive)

These entries and their values trace back to ChEMBL document CHEMBL1201862.
